// provenance: ChEMBL document CHEMBL1201862

tested on: OVCAR-5; assay: NCI tumour cell line growth inhibition, 48 h
Active and inactive are the calls of the source. No stated cut-off is given here; in the data, active = GI50 up to about 1.1 µM and inactive = higher.
Response enum: y for active, n for inactive

// known answers, use as guide
# compound, class.assignment
records = [
    ("CNc1nc(=O)c(C#N)c(-c2ccc(C)cc2)s1", "n"),
    ("Cc1ccc(NC(=O)CCc2n[nH]c(=S)o2)cc1", "n"),
    ("C#CC1(O)c2ccccc2C(=O)c2ccccc21", "n"),
    ("C#CN1C(=O)c2c(c(-c3ccccc3)c(-c3ccc(Oc4ccc(-c5c(-c6ccccc6)c6c(c(-c7ccccc7)c5-c5ccccc5)C(=O)N(C#C)C6=O)cc4)cc3)c(-c3ccccc3)c2-c2ccccc2)C1=O", "n"),
    ("COC(=O)C(Cc1ccccc1)C(=O)NC(CNC(=O)OCc1ccccc1)C(=O)OCc1ccccc1 (stereo unspecified)", "n"),
]

IN: Assay outcome for CN(C)C(=S)Nc1nnc(Nc2ccccc2)s1 : what was it?
OUT: n

IN: Another compound: O=C1O[C@@H](c2ccccc2)C[C@H]1CN1CCOCC1
OUT: n

IN: Also, CS(=N)(=O)CCC(N)P(=O)(O)O (stereo unspecified) please.
OUT: n
